METHOD: chemical genetic growth profiling, strain panel (AID 1159580);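 also: tested at 20 µM; growth read once vehicle control cultures reached saturation at 30 °C; 1 = growth at the plate median or of vehicle wells; lower values mean less growth of the strain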
MEASUREMENT CONTEXT: S. cerevisiae deletion strains, growth OD, locus YNL067W, strain RPL9B
In all, about 5,500 compounds went through this assay and about 2,000 (36%) were called active. Not shown: some 18% with an inconclusive outcome. Rule as the data show it: active = normalized growth mostly below about 0.91 (no sharp cut-off); inconclusive = no clear call, values can overlap the other calls; inactive = mostly above about 0.92. The list shows a part of the results.
Classes used: active, inactive

COMPOUND | CAT
CCCSP(=O)(OCC)SCCC | inactive
c1cc2c(cc1[C@H]1OC[C@H]3[C@@H]1CO[C@H]3c1ccc3c(c1)OCO3)OCO2 | inactive
O=C(O)CCCCCCCCCCCCC1C=CCC1 (stereo unspecified) | inactive
CC1=C(/C=C/C(C)=C/C=C/C(C)=C\C(=O)O)C(C)(C)CCC1 | inactive
CCOC(N)=O | inactive
CC12CCC(CC1)C(C)(C)O2 | inactive
COc1ccc(C[C@H](N)C(=O)N[C@@H]2[C@@H](CO)OC(n3cnc4c(N(C)C)ncnc43)[C@@H]2O)cc1 (stereo partly specified) | inactive
CC1=C(/C=C/C(C)=C/C=C/C(C)=C/C(=O)O)C(C)(C)CCC1 | inactive
C[C@@H]1C[C@@H]([C@H](O)CC2CC(=O)NC(=O)C2)C(=O)[C@@H](C)C1 | active
CCOc1ccc2c(c1)C(C)=CC(C)(C)N2 | inactive
COc1cc(C(=O)O)cc(OC)c1O | inactive
CC[C@@H]1[C@@H](O)N2C3C[C@H]1C1C(O)[C@]4(C[C@@H]12)c1ccccc1N(C)[C@@H]34 (stereo partly specified) | inactive
CC[C@]12CCCN3CCc4c(n(c5ccccc45)[C@](O)(C(=O)OC)C1)[C@@H]32 | inactive
COc1ccc2c(c1O)-c1c(OC)c(OC)cc3c1[C@H](C2)N(C)CC3 | inactive
COC(=O)[C@H]1[C@H]2C[C@@H]3c4[nH]c5cc(OC)ccc5c4CCN3C[C@H]2C[C@@H](OC(=O)c2cc(OC)c(OC)c(OC)c2)[C@@H]1OC | inactive
CC(=O)Oc1cc(C)c2c(c1C(OC(C)=O)OC(C)=O)Oc1c(c(C)c(OC(C)=O)c3c1C(OC(C)=O)OC3=O)OC2=O (stereo unspecified) | inactive
O=C(O)c1cc(O)c(O)c(O)c1 | inactive
CC(=O)OC/C=C(C)/C=C/C=C(C)/C=C/C1=C(C)CCCC1(C)C | inactive
O=c1ccn([C@@H]2O[C@H](COP(=O)(O)OP(=O)(O)OP(=O)(O)O)[C@@H](O)[C@H]2O)c(=O)[nH]1 | inactive
COc1cc(C)c2c(c1C=O)Oc1c(c(C)c(O)c3c1C(O)OC3=O)OC2=O (stereo unspecified) | inactive
O=c1cccc2n1C[C@H]1CNCC2C1 | inactive

====

// reported normalized growth for each item listed
METHOD: chemical genetic growth profiling, strain panel (AID 1159580);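 also: tested at 20 µM; growth read once vehicle control cultures reached saturation at 30 °C; 1 = growth at the plate median or of vehicle wells; lower values mean less growth of the strain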
MEASUREMENT CONTEXT: S. cerevisiae deletion strains, growth OD, locus YOR001W, strain rrp6, stronger effect = lower value
In all, about 5,500 compounds went through this assay and about 2,000 (36%) were called active. Not shown: some 18% with an inconclusive outcome. This is one part of the list.

COMPOUND | normalized growth
CC1=CC(=O)CC(C)(C)C1(O)/C=C/C(C)=C\C(=O)O (centres undefined) | 1.01
Nc1nc(N)c2nc(CNc3ccc(C(=O)NC(CCC(=O)O)C(=O)O)cc3)cnc2n1 (centres undefined) | 1.01
COc1ccc(/C=C/C(=O)c2cc(O)ccc2O)cc1 | 0.349
C=CCc1cc(OC)c2c(c1OC)OCO2 | 0.949
CC[C@]1(O)CC2CN(CCc3c([nH]c4ccccc34)[C@@](C(=O)OC)(c3cc4c(cc3OC)N(C=O)[C@H]3[C@@](O)(C(=O)OC)[C@H](OC(C)=O)[C@]5(CC)C=CCN6CC[C@]43[C@@H]65)C2)C1 (some centres undefined) | 0.945
Oc1ccc(/C=C/c2cc(O)cc(O)c2)cc1 | 0.985
COc1ccc(/C=C/C(=O)c2ccc(O)cc2O)cc1 | 0.444
CC(=O)O[C@H]1CC[C@@]2(C)C(=CCC3C2CC[C@]2(C)C(=O)CCC32)C1 (some centres undefined) | 0.969
CCn1cc(C(=O)O)c(=O)c2cnc(N3CCNCC3)nc21 | 1
CCCCC(CC)CN=C(N)NC(N)=NCCCCCCN=C(N)NC(N)=NCC(CC)CCCC (centres undefined) | 0.0671
CN(Cc1cc(Br)cc(Br)c1N)C1CCCCC1 | 1.01
CCOC(=O)C(C)(N)Cc1ccc(O)c(O)c1 (centres undefined) | 0.977
CC1=C(/C=C/C(C)=C/C=C/C(C)=C\C(=O)O)C(C)(C)CCC1 | 0.965
CC[C@@H]1[C@@H](O)N2C3C[C@H]1C1C(O)[C@]4(C[C@@H]12)c1ccccc1N(C)[C@@H]34 (some centres undefined) | 1.02
CC12CCC(CC1)C(C)(C)O2 | 0.98
NC(=O)c1ccc(N)nc1 | 0.997
CN1CCc2cccc3c2C1Cc1ccc(O)c(O)c1-3 (centres undefined) | 0.944
CC1(C)O[C@@H]2CC3C4CCC5=CC(=O)C=C[C@]5(C)C4[C@@H](O)C[C@]3(C)[C@]2(C(=O)CO)O1 (some centres undefined) | 1.01
Nc1c(Br)cc(Br)cc1CNC1CCC(O)CC1 (centres undefined) | 0.996
COc1cc(/C=C/C(=O)O)cc(OC)c1OC | 1.03
C[C@](N)(Cc1ccc(O)cc1)C(=O)O | 1
CCOC(=O)CCCCCCCCCCCCC1C=CCC1 (centres undefined) | 1
CC1=C(/C=C/C(C)=C/C=C/C(C)=C/C=C/C=C(C)/C=C/C=C(C)/C=C/C2=C(C)CCCC2(C)C)C(C)(C)CCC1 | 1.07
O=C(O)CNCP(=O)(O)O | 1.01
CC(Cc1ccc(O)c(O)c1)(NN)C(=O)O (centres undefined) | 0.987
CC[C@]12CCCN3CCc4c(n(c5ccccc45)[C@](O)(C(=O)OC)C1)[C@@H]32 | 1.02
CC1=C(/C=C/C(C)=C/C=C/C(C)=C/C(=O)O)C(C)(C)CCC1 | 0.978
CCCc1cc(OC)c2c(c1)OCO2 | 0.999
N[C@@H](CCC(=O)N[C@@H](CCSC(CC(=O)O)C(=O)O)C(=O)NCC(=O)O)C(=O)O (some centres undefined) | 1.02
O=C(/C=C/c1ccc(O)c(O)c1)O[C@@H]1C[C@](O)(C(=O)O)C[C@@H](O)[C@H]1O | 0.925
CC1(C)O[C@@H]2[C@@H](CO[C@@]3(COS(N)(=O)=O)OC(C)(C)O[C@@H]23)O1 | 0.965
O=C(O)CCCCC1SCC2NC(=O)NC21 (centres undefined) | 0.987
Nc1nc2ncc(CNc3ccc(C(=O)N[C@@H](CCC(=O)O)C(=O)O)cc3)nc2c(=O)[nH]1 | 0.984
OC/C=C/c1ccc(O)c(O)c1 | 1.01
CC(=O)O[C@H]1CC[C@@]2(C)C(=CCC3C2CC[C@@]2(C)C3CC[C@@H]2C(C)CCCC(C)C)C1 (some centres undefined) | 0.974
COc1ccc(/C=C/c2cc(O)cc(O)c2)cc1 | 1
COc1ccc(/C=C/C(=O)O)cc1OC | 0.926
CC12CCC3C(CC=C4CC(O)CCC43C)C1CCC2=O (centres undefined) | 0.8
COc1cc(C)c2c(c1C=O)Oc1c(c(C)c(O)c3c1C(O)OC3=O)OC2=O (centres undefined) | 1.03
CC1=C(/C=C/C(C)=C/C=C/C(C)=C/CO)C(C)(C)CCC1 | 0.983
CCOc1ccc2c(c1)C(C)=CC(C)(C)N2 | 1.01
S=c1[nH]c2ccccc2s1 | 0.943
CCN(CC)CCOC(=O)C(Cc1cccc2ccccc12)CC1CCCO1 (centres undefined) | 1.01
NC(=O)c1cc[n+](CC2=C(C(=O)O)N3C(=O)C(NC(=O)C(c4ccccc4)S(=O)(=O)[O-])C3SC2)cc1 (centres undefined) | 0.985
